Experiment: logP determination by HPLC on a reversed-phase column (C18)
Assay type: physicochemical
Conditions: HPLC-MS method a), reversed-phase column (C18)
Measure: logP^a)
Write the number on its own, no unit after it.

Examples from the recorded data:
Check the records and state logP^a) for O=C(NC1CC1)c1cc(-c2cnn(-c3c(Br)cc(C(F)(C(F)(F)F)C(F)(F)F)cc3C(F)(F)F)c2)ccc1Cl 4.5

Check the records and state logP^a) for Cc1cc(C(F)(C(F)(F)F)C(F)(F)F)cc(C(F)(F)F)c1-n1cc(-c2cnc(Cl)c(C(=O)NC3CC3)c2)cn1 4.0

Check the records and state logP^a) for Cc1cc(C(F)(C(F)(F)F)C(F)(F)F)cc(C)c1-n1cc(-c2cnc(Cl)c(C(=O)N(C)C3(C#N)CC3)c2)cn1 4.3

We now examine a further compound.
Check the records and state logP^a) for O=C(NC1CC1)c1cc(-c2cnn(-c3c(Cl)cc(C(F)(C(F)(F)F)C(F)(F)F)cc3C(F)(F)F)c2)cnc1Cl 4.0

* * *

Assay: logP determination by HPLC on a reversed-phase column (C18)
Type: physicochemical
Conditions: HPLC, C18 reversed phase, acetonitrile/water with formic acid, EEC Directive 79/831 Annex V.A8
Measure: logP
Write the number on its own, no unit after it.

Check the records and state logP for Cc1cc(C(F)(C(F)(F)F)C(F)(F)F)cc(C)c1-c1cnn(-c2cnc(Cl)c(C(=O)NC3CC3)c2)c1 4.4

Check the records and state logP for Cc1cc(C(F)(C(F)(F)F)C(F)(F)F)cc(C)c1-c1cnn(-c2ccc(Cl)c(C(=O)NC3(C#N)CC3)c2)c1 4.6

Check the records and state logP for CN(C(=O)c1cc(-c2ccn(-c3c(Cl)cc(C(F)(C(F)(F)F)C(F)(F)F)cc3Cl)c2)cnc1Cl)C1(C#N)CC1 4.8

Further cases:
Check the records and state logP for Cc1cc(C(F)(C(F)(F)F)C(F)(F)F)cc(C)c1-n1ccc(-c2ccc(Cl)c(C(=O)NC3CC3)c2)c1 5.0

Check the records and state logP for Cc1cc(C(F)(C(F)(F)F)C(F)(F)F)cc(C(F)(F)F)c1-n1cc(-c2ccc(Cl)c(C(=S)NC3CC3)c2)cn1 5.0

Check the records and state logP for O=C(NC1CC1)c1cc(-c2ccn(-c3c(Cl)cc(C(F)(C(F)(F)F)C(F)(F)F)cc3Cl)c2)cnc1Cl 4.5

Check the records and state logP for Cc1cc(C(F)(C(F)(F)F)C(F)(F)F)cc(C)c1-c1cnn(-c2cnc(Cl)c(C(=O)NC3(C#N)CC3)c2)c1 4.3

Check the records and state logP for Cc1cc(C(F)(C(F)(F)F)C(F)(F)F)cc(C)c1-c1cnn(-c2ccc(Cl)c(C(=O)NC3CC3)c2)c1 4.7

Check the records and state logP for CN(C(=O)c1cc(-c2cnn(-c3ccc(C(F)(C(F)(F)F)C(F)(F)F)cc3C(F)(F)F)c2)ccc1Cl)C1CC1 4.88

Check the records and state logP for Cc1cc(C(F)(C(F)(F)F)C(F)(F)F)cc(C)c1-c1cc(-c2ccc(Cl)c(C(=O)NC3(C#N)CC3)c2)on1 4.6

* * *

Experiment: logP determination by HPLC on a reversed-phase column (C18)
Type: physicochemical
Settings: HPLC-MS method a)
Kind request: treat 4 as inclusive, so logP^a) at 4 or higher is y, anything lower is n.

Test whether the compound N#CC1(NC(=O)c2cc(-c3cnn(-c4ccc(C(F)(C(F)(F)F)C(F)(F)F)cc4OC(F)(F)F)c3)ccc2Cl)CC1 records logP^a) of 4 or higher. y

Test whether the compound N#CC1(NC(=O)c2cc(-c3cnn(-c4c(F)cc(C(F)(F)F)cc4F)c3)ccc2Cl)CC1 records logP^a) of 4 or higher. n

Further cases:
Test whether the compound CCc1cc(C(F)(C(F)(F)F)C(F)(F)F)cc(C)c1-n1cc(-c2cncc(C(=O)NC3(C#N)CC3)c2)cn1 records logP^a) of 4 or higher. n

Test whether the compound Cc1ncc(-c2cnn(-c3c(Cl)cc(C(F)(C(F)(F)F)C(F)(F)F)cc3Cl)c2)cc1C(=O)NC1(C#N)CC1 records logP^a) of 4 or higher. n

Test whether the compound CCc1cc(C(F)(C(F)(F)F)C(F)(F)F)ccc1-n1cc(-c2cccc(C(=O)NC3CC3)c2F)cn1 records logP^a) of 4 or higher. y

Test whether the compound CCc1cc(C(F)(C(F)(F)F)C(F)(F)F)cc(C)c1-n1cc(-c2cncc(C(=O)NC3CC3)c2)cn1 records logP^a) of 4 or higher. n

Test whether the compound O=C(NCC(F)(F)F)c1cc(-c2cnn(-c3ccc(C(F)(C(F)(F)F)C(F)(F)F)cc3OC(F)(F)F)c2)ccc1Cl records logP^a) of 4 or higher. y

Test whether the compound CCc1cc(C(F)(C(F)(F)F)C(F)(F)F)ccc1-n1cc(-c2ccc(Cl)c(C(=O)NC3(C#N)CC3)c2)cn1 records logP^a) of 4 or higher. y

* * *

Experiment: logP determination by HPLC on a reversed-phase column (C18)
Format: physicochemical
Conditions: HPLC-MS method a)
Measure: logP^a)

Check the records and state logP^a) for O=C(NC1CC1)c1cc(-c2cnn(-c3c(Cl)cc(C(F)(F)F)cc3Cl)c2)cnc1Cl 3.1

Further cases:
Check the records and state logP^a) for O=C(NC1CC1)c1cc(-c2cnn(-c3ncc(C(F)(F)F)cc3Cl)c2)ccc1Cl 3.2

Check the records and state logP^a) for Cc1cc(C(F)(C(F)(F)F)C(F)(F)F)cc(C(F)(F)F)c1-n1cc(-c2ccc(Cl)c(C(=O)NCC(F)(F)F)c2)cn1 4.7

Check the records and state logP^a) for Cc1cc(C(F)(C(F)(F)F)C(F)(F)F)cc(C)c1-n1cc(-c2cccc(C(=O)NC3CC3)c2F)cn1 4.3

* * *

Experiment: logP determination by HPLC on a reversed-phase column (C18)
Type: physicochemical
Settings: HPLC-MS, reversed-phase column (C18); Table I-T3
Measure: log P
Write the number on its own, no unit after it.

Examples from the recorded data:
Check the records and state log P for Cc1cc(C(F)(C(F)(F)F)C(F)(F)F)cc(C)c1-n1cc(-c2cnc(Cl)c(C(=O)N(C)C3CC3)c2)cn1 4.4

Check the records and state log P for Cc1cc(C(F)(C(F)(F)F)C(F)(F)F)cc(C)c1-n1cc(-c2cnc(C)c(C(=O)NC3CC3)c2)cn1 3.3

Check the records and state log P for O=C(NC1CC1)c1cc(-c2cnn(-c3c(Cl)cc(C(F)(C(F)(F)F)C(F)(F)F)cc3C(F)F)c2)ccc1Cl 4.4

Check the records and state log P for O=C(NC1CC1)c1cc(-c2cnn(-c3c(Br)cc(C(F)(C(F)(F)F)C(F)(F)F)cc3C(F)(F)F)c2)ccc1Cl 4.5

Check the records and state log P for COCCNc1ncc(-c2cnn(-c3c(Cl)cc(C(F)(C(F)(F)F)C(F)(F)F)cc3Cl)c2)cc1C(=O)NC1CC1 4.1

Check the records and state log P for N#Cc1cc(C(F)(F)F)cc(Cl)c1-n1cc(-c2ccc(Cl)c(C(=O)NC3CC3)c2)cn1 3.1

Further cases:
Check the records and state log P for CC[S+]([O-])c1cc(C(F)(C(F)(F)F)C(F)(F)F)cc(C)c1-n1cc(-c2ccc(Cl)c(C(=O)NC3(C#N)CC3)c2)cn1 (stereo not shown) 3.6

* * *

Listed here: items and their measured log P.
Assay: logP determination by HPLC on a reversed-phase column (C18)
Assay type: physicochemical
Details: HPLC-MS, reversed-phase column (C18); Table I-T3
Write the number on its own, no unit after it.

Check the records and state log P for CCSc1cc(C(F)(C(F)(F)F)C(F)(F)F)cc(SCC)c1-n1cc(-c2ccc(Cl)c(C(=O)NC3(C#N)CC3)c2)cn1 4.7

Further cases:
Check the records and state log P for CCSc1cc(C(F)(C(F)(F)F)C(F)(F)F)cnc1-n1cc(-c2ccc(Cl)c(C(=O)NC3CC3)c2)cn1 4.7

Check the records and state log P for N#CC1(NC(=O)c2cc(-c3cnn(-c4c(F)cc(C(F)(F)F)cc4Cl)c3)ccc2Cl)CC1 3.3

Check the records and state log P for Cc1cc(C(F)(C(F)(F)F)C(F)(F)F)cc(C)c1-n1cc(-c2cnc(Cl)c(C(=O)N(C)C3(C#N)CC3)c2)cn1 4.3

Check the records and state log P for CN(C(=O)c1cc(-c2cnn(-c3c(I)cc(C(F)(C(F)(F)F)C(F)(F)F)cc3OC(F)(F)F)c2)ccc1Cl)C1CC1 5.2

Check the records and state log P for Cc1ncc(-c2cnn(-c3c(Cl)cc(C(F)(C(F)(F)F)C(F)(F)F)cc3C(F)(F)F)c2)cc1C(=O)NC1CC1 3.5

Check the records and state log P for O=C(NC1CC1)c1cc(-c2cnn(-c3c(Cl)cc(C(O)(C(F)(F)F)C(F)(F)F)cc3Cl)c2)cnc1Cl 3.0

Check the records and state log P for CC[S+]([O-])c1cc(C(F)(C(F)(F)F)C(F)(F)F)cnc1-n1cc(-c2ccc(Cl)c(C(=O)NC3CC3)c2)cn1 (centres unmarked) 3.8

Check the records and state log P for Cc1cc(C(F)(C(F)(F)F)C(F)(F)F)cc(C(F)(F)F)c1-n1cc(-c2cnc(C)c(C(=O)NC3CC3)c2)cn1 3.5

Check the records and state log P for N#CC1(NC(=O)c2cc(-c3cnn(-c4c(Cl)cc(C(F)(C(F)(F)F)C(F)(F)F)cc4OC(F)F)c3)ccc2Cl)CC1 4.1

Check the records and state log P for N#CC1(NC(=O)c2cc(-c3cnn(-c4c(F)c(F)c(C(F)(F)F)c(F)c4F)c3)ccc2Cl)CC1 3.4

Check the records and state log P for O=C(NC1CC1)c1cc(-c2cnn(-c3c(Cl)cc(C(F)(C(F)(F)F)C(F)(F)F)cc3OC(F)F)c2)cnc1Cl 3.9

Check the records and state log P for CC[S+]([O-])c1cc(C(F)(C(F)(F)F)C(F)(F)F)cnc1-n1cc(-c2ccc(Cl)c(C(=O)NC3(C#N)CC3)c2)cn1 (centres unmarked) 3.7

Check the records and state log P for O=C(NC1CC1)c1cc(-c2cnn(-c3c(I)cc(C(F)(C(F)(F)F)C(F)(F)F)cc3OC(F)(F)F)c2)ccc1Cl 4.7
